Measured EC50 by item
Biological target: Prostaglandin E2 receptor EP2 subtype (Rattus norvegicus, UniProt Q62928)
Sequence (Q62928 whole entry): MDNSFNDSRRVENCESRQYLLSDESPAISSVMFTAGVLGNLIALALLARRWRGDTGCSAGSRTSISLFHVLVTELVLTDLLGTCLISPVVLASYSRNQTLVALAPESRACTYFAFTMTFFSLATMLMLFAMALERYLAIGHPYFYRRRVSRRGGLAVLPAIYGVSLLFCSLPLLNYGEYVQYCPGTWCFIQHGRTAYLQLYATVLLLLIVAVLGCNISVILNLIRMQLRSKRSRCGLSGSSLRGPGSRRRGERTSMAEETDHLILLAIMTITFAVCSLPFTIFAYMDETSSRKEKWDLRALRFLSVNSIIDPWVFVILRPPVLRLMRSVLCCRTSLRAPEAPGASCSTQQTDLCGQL
Assay: Agonist activity at rat EP2 receptor expressed in CHO cells assessed as cAMP production after 10 mins by radioimmunoassay
Numeric answer only, unit µM assumed.

Completed entries (count: 5):
{"input_smiles": "COc1ccc(-c2cccc(C[C@H](O)/C=C/[C@H]3CCC(=O)N3CCSc3nc(C(=O)O)cs3)c2)cc1", "EC50 [µM]": 4.6}
{"input_smiles": "Cc1ccc2nc(-c3cccc(C[C@H](O)/C=C/[C@H]4CCC(=O)N4CCSc4nc(C(=O)O)cs4)c3)oc2c1", "EC50 [µM]": 3.2}
{"input_smiles": "Cc1ccc(-c2cccc(C[C@H](O)/C=C/[C@H]3CCC(=O)N3CCSc3nc(C(=O)O)cs3)c2)cc1C", "EC50 [µM]": 1.4}
{"input_smiles": "O=C(O)c1csc(SCCN2C(=O)CC[C@@H]2/C=C/[C@@H](O)Cc2cccc(-c3nc4ccccc4s3)c2)n1", "EC50 [µM]": 2.7}
{"input_smiles": "Cc1ccc(-c2cccc(C[C@H](O)/C=C/[C@H]3CCC(=O)N3CCSc3nc(C(=O)O)cs3)c2)cc1", "EC50 [µM]": 0.38}

// returns reported EC50 for input O=C(O)c1csc(SCCN2C(=O)CC[C@@H]2/C=C/[C@@H](O)Cc2cccc(-c3nc4ccccc4o3)c2)n1
1.6

What do you have for Cc1cccc2oc(-c3cccc(C[C@H](O)/C=C/[C@H]4CCC(=O)N4CCSc4nc(C(=O)O)cs4)c3)nc12 ?
8.5

Entry to check: O=C(O)c1csc(SCCN2C(=O)CC[C@@H]2/C=C/[C@@H](O)Cc2cccc(-c3cc4ccccc4o3)c2)n1
1.5
